Test system: P-gp (MDR1)
Experiment: MDCK-MDR1 cell permeability and efflux
Assay type: in vitro ADME
Settings: dog, MDCK-MDR1, B to A direction; read-out: MDCK-MDR1 BA Papp
Definition: the class of an entry is the range in bin 0 = under 40 ×10⁻⁶ cm/s, bin 1 = from 40 ×10⁻⁶ cm/s up to 60 ×10⁻⁶ cm/s, bin 2 = 60 ×10⁻⁶ cm/s and over that contains its Papp.

See these solved cases before continuing.
RECORD_SMILES	QUALITATIVE_LABEL
Cc1c(C(F)(F)F)sc2ncnc(SCC(=O)N3CC(=O)N(C)C3)c12	bin 0
Cc1sc2ncnc(SCC(=O)N3CCn4cnnc4C3)c2c1Cl	bin 1
Cc1sc2ncnc(SCC(=O)N3CNC(=O)C3)c2c1Cl	bin 2
CN1CN(C(=O)CSc2ncnc3c(C4CC4)c(Cl)sc23)CC1=O	bin 0
CCc1nnc2n1CCN(C(=O)CSc1ncnc3sc(C)c(Cl)c13)C2	bin 2
CCN1CCN(C(=O)CSc2ncnc3sc(C)c(Cl)c23)CC1=O	bin 0
Cc1sc2ncnc(SCC(=O)N3CC(=O)N(C)C3)c2c1Cl	bin 1
Cc1nc2n(n1)CCN(C(=O)CSc1ncnc3sc(C)c(Cl)c13)C2	bin 1

Lab note: next compound to report on.
Band for Cc1sc2ncnc(SCC(=O)N3CCN(C)C(=O)C3)c2c1Cl ?
bin 2
